# Tested on: A673/TR/shEF
# Test Name: cell viability (LOESS-normalised, relative to median of negative controls) (log2 ratio); higher = more viable cells (less compound effect), active = hit call of the paper (over 3 MAD below the median)
# Protocol Conditions: 2.5 µM; library screen: screen1; EWS-FLI1 expression: low (doxycycline-induced shRNA knockdown); treatment time: 72 h
The campaign covered roughly 3,200 compounds. About 300 (9.4%) showed activity. For the sample, actives were picked, then their nearest neighbours and some compounds at random.
// values below are reported cell viability (log2)
Please give the numeric answer without any surrounding text.

CC1(C)COC(CC(=O)O)CN1 (configuration not stated)
0.0408

Reported cell viability (log2) ( N#C/C(=C\c1cc(Cl)cc(Cl)c1)c1cccnc1 ) = 0.0837

Reported cell viability (log2) ( COc1ccc(C2COc3c(ccc(O)c3OC)C2)c(OC)c1O (configuration not stated) ) = -0.00772

Reported cell viability (log2) ( COc1ccccc1C=CC(=O)O ) = 0.0515

Reported cell viability (log2) ( COc1ccc(-c2coc3c(OC)c(OC)cc(OC)c3c2=O)cc1 ) = 0.078

Reported cell viability (log2) ( O=C(O)CCCCCCCCCCCCC1C=CCC1 (configuration not stated) ) = 0.00345

Reported cell viability (log2) ( CC(C)c1c(C(=O)Nc2ccccc2)c(-c2ccccc2)c(-c2ccc(F)cc2)n1CC[C@@H](O)C[C@@H](O)CC(=O)O ) = -0.0132
